System: SW480 colon carcinoma cells
assay: Cell viability assay (CellTiter-Glo)
setup-conditions: Homo sapiens, SW480, read-out: percent inhibition at 10 μM
Please respond with reported inhibition at 10 µM for every item in the list.
The answer is to be given in %; state only the numeric part.

State the recorded inhibition at 10 µM for this entry: O=C(Nc1cc2cc(-c3cncc(NC4CCNCC4)n3)cnc2cn1)C1CCOCC1 8.1

Could you do the same for Cc1nnc(-c2cc3cc(NC(=O)CN4C5CCC4CC5)ncc3cn2)s1 , please? 4.1

Note, next up: Cn1cc(-c2ccc3cnc(NC(=O)[C@H]4CC[C@H](NC(=O)OC(C)(C)C)CC4)cc3n2)cn1 4.7

Would you kindly repeat that for Cn1cc(-c2cnc3cnc(NC(=O)C4CCNCC4)cc3c2)cn1 ? 26.5

Would you kindly repeat that for Cn1cncc1-c1ccc2cnc(NC(=O)c3ccc(F)cc3)cc2n1 ? 16.2

Would you kindly repeat that for CCN(CC)CC(=O)Nc1ncc2ccc(-c3cnn(C)c3CN3CCCCC3)cc2n1 ? 17.4

Please give the result for Cc1ncc(-c2ccc3cnc(NC(=O)[C@H]4C[C@H](N5CCOCC5)C4)nc3c2)o1 too. 20.9

Request: Cn1cc(-c2cc3cc(NC(=O)c4ccc5ccoc5c4)ncc3cn2)cn1 33.9

* * *

System: Tau phosphorylation at Ser396 (pSer396)
assay: Tau phosphorylation at Ser396 (pSer396) in SH-SY5Y cells, ELISA / western blot;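 also: decrease in pSer396 Tau measured in lysates of treated cells by colorimetric ELISA or chemiluminescent western blot, same pSer396 antibody for both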
Type: cell-based, human
setup-conditions: Homo sapiens; SH-SY5Y cells, overnight (16-18 h); read-out: pSer396 Tau EC50
Exercise: for every item that follows, state its recorded EC50.
Unit nM implied. Number only.

So what's the measured EC50 for this one? CC(C)OCCC(=O)Nc1ncc2ccc(-c3cncn3C)cc2n1 168

Cool, now CO[C@H]1CC[C@@H](C(=O)Nc2ncc3ccc(-c4nnc(C)s4)cc3n2)CC1 1100

Next up: O=C(Nc1cc2nc(-c3cccnc3)ccc2cn1)C1CC1 807

Now try CC(C(=O)Nc1cc2nc(-c3cnn(C)c3)ccc2cn1)N1CCCCC1 (stereo not shown) . 1100

Here is the next compound: COC1CCN(CC(=O)Nc2ncc3ccc(-c4cn(C)nn4)cc3n2)CC1 902

Also need O=C(Nc1cc2cc(-c3cnco3)ncc2cn1)C1CCN(C(=O)CN2CCCC2)CC1 , thanks. 989

Next entry: Cn1cncc1-c1ccc2cnc(NC(=O)c3ccc4c(c3)CNC4)cc2n1 10000

Try Cn1cc(-c2ccc3cnc(NC(=O)[C@H]4CC[C@H](N5CCOCC5)CC4)cc3n2)cn1 next. 2000

Repeat with Cc1cn2c(n1)CN(C(=O)Nc1cc3nc(-c4cnc(C)o4)ccc3cn1)CC2 374

Now consider CN1CCCN(CC(=O)Nc2cc3cc(-c4cnn(C)c4)ncc3cn2)CC1 . 227

Cool, now Cn1ncc(-c2ccc3cnc(NC(=O)C4CC5(C4)CN(CCF)C5)nc3c2)c1CN1CCCCC1 5400

Please do the same for Cn1cc(-c2ccc3cnc(NC(=O)C4CCN(CC5(C(F)(F)F)CC5)CC4)nc3c2)nn1 as well. 188

Ok, now O=C(Nc1ncc2ccc(-c3cncc(N[C@H]4CCNC[C@@H]4F)n3)cc2n1)C1CC1 5660

Another compound: Cc1ncc(C(=O)Nc2cc3nc(-c4cnc(C)n4C)ccc3cn2)s1 562

Then what about the compound Cc1ncc(-c2ccc3cnc(NC(=O)[C@H]4C[C@H](N5CCOCC5)C4)cc3n2)o1 ? 487

Another compound to look at: Cn1cc(-c2cc3cc(NC(=O)CCc4ccccc4)ncc3cn2)cn1 29

And CN1CCC(N(C)c2cc(C(=O)Nc3ncc4ccc(-c5cn(C)nn5)cc4n3)ccn2)CC1 ? 10000

Same thing, different compound: Cc1nnc(-c2cc3cc(NC(=O)C4CCN(C(=O)c5ccccc5)CC4)ncc3cn2)s1 1540

Another: Cc1ncc(-c2ccc3cnc(NC(=O)C(C)N4CCCC4)cc3n2)n1C (stereo not shown) 76

Okay, and O=C(Nc1cc2cc(-c3cnco3)cnc2cn1)C1CCN(C(=O)CN2CCCC2)CC1 ? 10000

Item: CC(C)CN1CCC(C(=O)Nc2cc3nc(-c4cnn(C)c4)ccc3cn2)CC1 923

Query Cn1cc(-c2ccc3cnc(NC(=O)C4CCN(S(C)(=O)=O)CC4)cc3n2)cn1 next 426

Follow-up entry: CC(C)CN1CCC(CC(=O)Nc2cc3nc(-c4cnn(C)c4)ccc3cn2)C1 (stereo not shown) 481

Okay, and O=C(Nc1cc2cc(-c3cncc(NC4CCNCC4)n3)ncc2cn1)C1CCOCC1 ? 10000

Note, next up: O=C(Nc1cc2cc(-c3cnn4c3CN(CCF)CC4)ncc2cn1)C1CCC(F)(F)CC1 428

Same read-out for Cn1cc(-c2ccc3cnc(NC(=O)[C@H]4CC[C@H](NCCF)CC4)cc3n2)cn1 ? 925

Another compound to look at: Cc1ncc(-c2ccc3cnc(NC(=O)C4CCN(C)CC4)cc3n2)s1 877

Let us now turn to CC(C(=O)Nc1cc2cc(-c3cncn3C)ncc2cn1)N1CCCC1 (stereo not shown) 102
